- target: T1, Murine FGFR2IIIb (murine, UniProt P21803-2 22-263, limits assumed)
- T1 construct: Construct used in the ELISA is not described
- T1 sequence (P21803 other isoform, or with tags, fused parts or gaps limits assumed): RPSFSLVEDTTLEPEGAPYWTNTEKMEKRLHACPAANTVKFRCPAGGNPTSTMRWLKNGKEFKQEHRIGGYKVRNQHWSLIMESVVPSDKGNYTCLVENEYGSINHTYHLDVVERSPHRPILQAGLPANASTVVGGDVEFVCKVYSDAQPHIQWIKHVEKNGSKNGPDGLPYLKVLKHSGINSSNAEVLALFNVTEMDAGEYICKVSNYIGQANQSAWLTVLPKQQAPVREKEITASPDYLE
- assay_explanation: ELISA, coated antigen, anti-Fab HRP
value_type: pEC50
The quantity pEC50 is defined as the negative base-10 logarithm of the molar concentration.

Inquiry: For the binder FWB1915 (antibody, V domains shown) VH: QVQLVQSGAEVKKPGSSVKVSCKASGYIFTSYNVHWVRQAPGQGLEWIGSIYPDNGDSSYDEDYKGRATITADKSTSTAYMELSSLRSEDTAVYYCARGDFAYWGQGTLVTVSS VL: DIQMTQSPSSLSASVGDRVTITCKASNGVSNDIAWYQQKPGKAPKLLIYSASYRYSGVPSRFSGSGSGTDFTFTISSLQPEDIATYYCQQHSTTPYTFGQGTKLEIK , give its reported pEC50.
Reply text: 9.56

Inquiry: Provide pEC50 value for the following binder: FWB1912 (antibody, V domains shown) VH: QVQLVQSGAEVKKPGSSVKVSCKASGYIFTSYNVHWVRQAPGQGLEWIGSIYPDNGDSSYNQNYKGRATITADKSTSTAYMELSSLRSEDTAVYYCARGDYAYWGQGTLVTVSS VL: DIQMTQSPSSLSASVGDRVTITCKASNGVSNDIAWYQQKPGKAPKLLIYSASYRYSGVPSRFSGSGSGTDFTFTISSLQPEDIATYYCQQHSTTPYTFGQGTKLEIK
Reply text: 9.53

Inquiry: Give the measured pEC50 for FWB1922 (antibody, V domains shown) VH: QVQLVQSGAEVKKPGSSVKVSCKASGYIFTSYNVHWVRQAPGQGLEWIGSIYPDNGDSTYNQNYRGRATITADKSTSTAYMELSSLRSEDTAVYYCARGDFAYWGQGTLVTVSS VL: DIQMTQSPSSLSASVGDRVTITCKGSNGISNDIAWYQQKPGKAPKLLIYSASYRYSGVPSRFSGSGSGTDFTFTISSLQPEDIATYYCQQHSTTPYTFGQGTKLEIK
Reply text: 9.86
